Reference for the values: paper PMC10975434

IC50 values, listed per item
- SYSTEM UNDER TEST: UGT2B7 (Homo sapiens, UniProt P16662, Y268H)
- METHOD NOTES: IC50 determination, morphine glucuronidation in rUGT2B7-overexpressing HEK293 cell microsomes
- ASSAY CONDITIONS: read-out: IC50,u, Morphine-3-Glucuronide formation, corrected for non-specific binding with fu,inc (11-OH-THC fu,inc as surrogate for 11-COOH-THC and 7-OH-CBD)
RECORDED ENDPOINT: IC50 (nM)

{"MOLECULE": "CCCCCc1cc(O)c2c(c1)OC(C)(C)[C@@H]1CCC(C)=C[C@@H]21 [THC, Δ^9-tetrahydrocannabinol, reference compound]", "READOUT UNIT": "nM", "RESULT NUMBER": 850}
{"MOLECULE": "CCCCCc1cc(O)c2c(c1)OC(C)(C)[C@@H]1CCC(C(=O)O)=C[C@@H]21", "READOUT UNIT": "nM", "RESULT NUMBER": 3700}
{"MOLECULE": "C=C(C)[C@@H]1CCC(CO)=C[C@H]1c1c(O)cc(CCCCC)cc1O [7-OH-CBD, 7-hydroxy-cannabidiol]", "READOUT UNIT": "nM", "RESULT NUMBER": 3000}

* * *

- SYSTEM UNDER TEST: UGT2B7 (Homo sapiens)
- METHOD NOTES: IC50 determination and calculated Ki, morphine glucuronidation in HLM
- ASSAY CONDITIONS: human, human liver microsomes, probe morphine […] (morphine-6-glucuronide formation), IC50,u, Morphine-6-Glucuronide formation, corrected for non-specific binding with fu,inc (11-OH-THC fu,inc as surrogate for 11-COOH-THC and 7-OH-CBD)

{"COMPOUND": "C=C(C)[C@@H]1CCC(C)=C[C@H]1c1c(O)cc(CCCCC)cc1O [CBD, cannabidiol, reference compound]", "SYSTEM UNDER TEST": "UGT2B7 (Homo sapiens)", "READOUT UNIT": "nM", "IC50": 320}

* * *

- METHOD NOTES: Estimated unbound maximum hepatic inlet concentration used for the static model
- ASSAY CONDITIONS: read-out: Cmax,hepatic inlet,u; THC dose 25 mg, Inhalation; estimated from Cmax of Bansal et al., 2022 [56]
Below: a set of entries, each annotated with reported Cmax.

{"MOLECULE": "CCCCCc1cc(O)c2c(c1)OC(C)(C)[C@@H]1CCC(C)=C[C@@H]21 [THC, Δ^9-tetrahydrocannabinol, reference compound]", "Cmax / nM": 250}
{"MOLECULE": "CCCCCc1cc(O)c2c(c1)OC(C)(C)[C@@H]1CCC(C(=O)O)=C[C@@H]21 [11-COOH-THC]", "Cmax / nM": 70}

* * *

- METHOD NOTES: Estimated unbound maximum hepatic inlet concentration used for the static model
- ASSAY CONDITIONS: read-out: Cmax,hepatic inlet,u; THC dose 160 mg, Oral; estimated from Cmax of Bansal et al., 2022 [56]

{"COMPOUND": "CCCCCc1cc(O)c2c(c1)OC(C)(C)[C@@H]1CCC(C)=C[C@@H]21 [THC, Δ^9-tetrahydrocannabinol, reference compound]", "Cmax": "240 nM"}
{"COMPOUND": "CCCCCc1cc(O)c2c(c1)OC(C)(C)[C@@H]1CCC(C(=O)O)=C[C@@H]21", "Cmax": "1500 nM"}

* * *

- SYSTEM UNDER TEST: UGT2B7 (Homo sapiens, UniProt P16662, Y268H)
- METHOD NOTES: Inhibition screening of morphine glucuronidation in rUGT2B7-overexpressing HEK293 cell microsomes
- ASSAY CONDITIONS: rUGT-overexpressing microsomes and HLM
RECORDED ENDPOINT: inhibition of UGT2B7-mediated morphine metabolism (overall, in words)

{"COMPOUND": "C=C(C)[C@@H]1CCC(CO)=C[C@H]1c1c(O)cc(CCCCC)cc1O [7-OH-CBD, 7-hydroxy-cannabidiol]", "RESULT": "strong inhibition"}
{"COMPOUND": "CCCCCc1cc(O)c2c(c1)OC(C)(C)[C@@H]1CCC(C)=C[C@@H]21 [THC, Δ^9-tetrahydrocannabinol, reference compound]", "RESULT": "strong inhibition"}
{"COMPOUND": "C=C(C)[C@@H]1CCC(C)=C[C@H]1c1c(O)cc(CCCCC)cc1O [CBD, cannabidiol, reference compound]", "RESULT": "strong inhibition"}

* * *

- METHOD NOTES: Estimated unbound maximum hepatic inlet concentration used for the static model
- ASSAY CONDITIONS: read-out: Cmax,hepatic inlet,u; CBD dose 70 mg, Oral; estimated from Cmax of Bansal et al., 2022 [56]

{"MOLECULE": "C=C(C)[C@@H]1CCC(CO)=C[C@H]1c1c(O)cc(CCCCC)cc1O [7-OH-CBD, 7-hydroxy-cannabidiol]", "Cmax": "30 nM"}

* * *

- METHOD NOTES: Estimated unbound maximum hepatic inlet concentration used for the static model
- ASSAY CONDITIONS: read-out: Cmax,hepatic inlet,u; THC dose 100 mg, Inhalation; estimated from Cmax of Bansal et al., 2022 [56]
RECORDED ENDPOINT: Cmax (nM)

{"COMPOUND": "CCCCCc1cc(O)c2c(c1)OC(C)(C)[C@@H]1CCC(C(=O)O)=C[C@@H]21", "RESULT NUMBER": 260}
{"COMPOUND": "CCCCCc1cc(O)c2c(c1)OC(C)(C)[C@@H]1CCC(C)=C[C@@H]21 [THC, Δ^9-tetrahydrocannabinol, reference compound]", "RESULT NUMBER": 990}

* * *

- SYSTEM UNDER TEST: UGT2B7 (Homo sapiens, UniProt P16662)
- Sequence (P16662 24-529): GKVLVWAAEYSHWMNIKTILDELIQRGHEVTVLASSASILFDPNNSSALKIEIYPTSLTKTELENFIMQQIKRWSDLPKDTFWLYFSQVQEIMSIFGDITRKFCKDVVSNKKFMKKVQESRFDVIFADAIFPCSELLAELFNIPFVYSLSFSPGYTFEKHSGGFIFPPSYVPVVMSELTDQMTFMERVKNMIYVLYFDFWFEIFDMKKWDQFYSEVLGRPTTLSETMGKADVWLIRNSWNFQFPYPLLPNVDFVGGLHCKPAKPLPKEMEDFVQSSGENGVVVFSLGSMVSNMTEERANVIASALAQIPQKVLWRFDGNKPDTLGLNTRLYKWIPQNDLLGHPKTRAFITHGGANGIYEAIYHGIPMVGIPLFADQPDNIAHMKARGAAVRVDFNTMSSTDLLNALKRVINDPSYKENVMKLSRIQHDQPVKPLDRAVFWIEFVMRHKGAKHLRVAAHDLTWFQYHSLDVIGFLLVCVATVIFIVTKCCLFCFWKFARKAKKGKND
- METHOD NOTES: IC50 determination and calculated Ki, morphine glucuronidation in HLM
- ASSAY CONDITIONS: read-out: Calculated Ki, Morphine-6-Glucuronide, Ki=IC50/2 assuming competitive inhibition
pKi: −log10 of the molar value.

{"COMPOUND": "C=C(C)[C@@H]1CCC(CO)=C[C@H]1c1c(O)cc(CCCCC)cc1O [7-OH-CBD, 7-hydroxy-cannabidiol]", "pKi": 5.40}
{"COMPOUND": "CCCCCc1cc(O)c2c(c1)OC(C)(C)[C@@H]1CCC(C)=C[C@@H]21 [THC, Δ^9-tetrahydrocannabinol, reference compound]", "pKi": 5.11}
{"COMPOUND": "CCCCCc1cc(O)c2c(c1)OC(C)(C)[C@@H]1CCC(C(=O)O)=C[C@@H]21", "pKi": 4.28}

* * *

Item-by-item account of inhibition at 100 µM
- SYSTEM UNDER TEST: UGT2B7 (Homo sapiens, UniProt P16662, Y268H)
- METHOD NOTES: in vitro
- ASSAY CONDITIONS: microsomes of HEK293 cells overexpressing recombinant UGT2B7, probe morphine […] (morphine-3-glucuronide formation)

{"COMPOUND": "C=C(C)[C@@H]1CCC(C)=C[C@H]1c1c(O)cc(CCCCC)cc1O [CBD, cannabidiol, reference compound]", "inhibition at 100 µM (%)": 99}
{"COMPOUND": "CCCCCc1cc(O)c2c(c1)OC(C)(C)c1ccc(C)cc1-2", "inhibition at 100 µM (%)": 10}

* * *

- METHOD NOTES: Estimated unbound maximum hepatic inlet concentration used for the static model
- ASSAY CONDITIONS: human, hepatic inlet (unbound), po, 70 mg

{"MOLECULE": "C=C(C)[C@@H]1CCC(C)=C[C@H]1c1c(O)cc(CCCCC)cc1O [CBD, cannabidiol, reference compound]", "Cmax / nM": 90}

* * *

- SYSTEM UNDER TEST: UGT2B7 (Homo sapiens, UniProt P16662)
- METHOD NOTES: IC50 determination and calculated Ki, morphine glucuronidation in HLM
- ASSAY CONDITIONS: read-out: Calculated Ki,u, Morphine-6-Glucuronide, Ki corrected with fu,inc

{"MOLECULE": "C=C(C)[C@@H]1CCC(CO)=C[C@H]1c1c(O)cc(CCCCC)cc1O [7-OH-CBD, 7-hydroxy-cannabidiol]", "Ki (nM)": 380}
{"MOLECULE": "CCCCCc1cc(O)c2c(c1)OC(C)(C)[C@@H]1CCC(C)=C[C@@H]21 [THC, Δ^9-tetrahydrocannabinol, reference compound]", "Ki (nM)": 370}
{"MOLECULE": "CCCCCc1cc(O)c2c(c1)OC(C)(C)[C@@H]1CCC(C(=O)O)=C[C@@H]21 [11-COOH-THC]", "Ki (nM)": 4890}
